Experimental System: Fuc(a1-2)[Gal(a1-3)]Gal(b1-3)GlcNAc(b1-2)Man(a1-3)[Fuc(a1-2)[Gal(a1-3)]Gal(b1-3)GlcNAc(b1-2)Man(a1-6)]Man(b1-4)GlcNAc(b1-4)GlcNAc
Test Summary: glycan array binding signal (z-score within array); higher = stronger binding
Conditions Used: glycan notation: IUPAC condensed, linker removed
The sample as a whole holds a higher share of the strongest signals than the screen did.
Reported Endpoint: glycan array binding signal (z-score)
Just the number.

Binder	Data Value
rMpL (Macrolepiota procera) (protein) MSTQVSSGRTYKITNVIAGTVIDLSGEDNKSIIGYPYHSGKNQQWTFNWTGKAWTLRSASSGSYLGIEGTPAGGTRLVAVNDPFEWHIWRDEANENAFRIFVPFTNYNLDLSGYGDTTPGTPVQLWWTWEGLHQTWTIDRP	-0.259
AAL (Aleuria aurantia), P18891 (protein) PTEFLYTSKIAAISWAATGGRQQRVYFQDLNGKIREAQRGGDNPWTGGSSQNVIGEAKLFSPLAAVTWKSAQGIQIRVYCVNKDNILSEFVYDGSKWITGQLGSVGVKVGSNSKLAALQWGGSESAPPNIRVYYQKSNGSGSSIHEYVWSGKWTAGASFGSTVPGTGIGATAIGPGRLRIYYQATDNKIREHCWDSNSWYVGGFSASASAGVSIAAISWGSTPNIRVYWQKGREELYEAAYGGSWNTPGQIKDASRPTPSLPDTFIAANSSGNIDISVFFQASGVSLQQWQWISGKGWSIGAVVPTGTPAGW	-0.407

Lab note: next binder to report on.
Exam item: Recall and state the measured glycan array binding signal (z-score) for MGL (Homo sapiens), Q8IUN9 (protein) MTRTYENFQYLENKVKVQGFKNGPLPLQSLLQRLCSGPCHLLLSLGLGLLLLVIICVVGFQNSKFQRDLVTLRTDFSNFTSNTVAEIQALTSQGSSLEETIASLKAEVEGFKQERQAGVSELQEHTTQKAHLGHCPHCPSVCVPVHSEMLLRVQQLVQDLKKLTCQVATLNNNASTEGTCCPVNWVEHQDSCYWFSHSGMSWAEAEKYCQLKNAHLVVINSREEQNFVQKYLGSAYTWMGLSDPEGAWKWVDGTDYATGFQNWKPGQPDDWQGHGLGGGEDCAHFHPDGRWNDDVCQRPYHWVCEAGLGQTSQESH .
Marked response: -0.249
